- study_system: estrogen receptor alpha (ESR1) (Homo sapiens, UniProt P03372)
- Sequence (P03372 whole entry): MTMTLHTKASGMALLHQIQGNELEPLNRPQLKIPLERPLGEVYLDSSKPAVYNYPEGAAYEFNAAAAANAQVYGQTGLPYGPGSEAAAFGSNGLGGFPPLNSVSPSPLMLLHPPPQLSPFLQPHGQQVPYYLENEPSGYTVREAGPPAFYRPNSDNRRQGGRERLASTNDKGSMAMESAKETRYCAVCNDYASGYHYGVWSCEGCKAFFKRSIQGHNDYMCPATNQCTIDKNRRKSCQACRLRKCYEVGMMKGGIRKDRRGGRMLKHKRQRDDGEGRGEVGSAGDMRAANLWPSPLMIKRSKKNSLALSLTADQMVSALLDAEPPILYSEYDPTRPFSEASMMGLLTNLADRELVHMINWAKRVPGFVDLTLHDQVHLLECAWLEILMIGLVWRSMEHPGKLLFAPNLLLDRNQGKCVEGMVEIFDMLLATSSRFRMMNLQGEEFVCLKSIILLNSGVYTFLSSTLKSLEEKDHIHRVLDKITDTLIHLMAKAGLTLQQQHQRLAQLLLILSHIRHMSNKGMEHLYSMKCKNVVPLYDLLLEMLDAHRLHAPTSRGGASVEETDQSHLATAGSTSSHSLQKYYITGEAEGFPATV
- assay_procedure: cell-based
Overview of recorded pEC50 for various compounds
Field pEC50 (float): negative decimal logarithm of the concentration in molar.

Sample answers from the record:
{"smiles_text": "Cc1c(-c2ccccc2)n(Cc2ccc(OCCN3CC(CF)C3)cc2)c2ccccc12", "pEC50": 6.70}
{"smiles_text": "Oc1ccc2c(c1)C1=C(c3cc(O)ccc3OCC1)[C@@H](c1ccc(OCCN3CC(CF)C3)cc1)O2", "pEC50": 8.49}
{"smiles_text": "O=C(c1ccc(OCCN2CC(CF)C2)cc1)c1c(-c2ccc(O)cc2)sc2cc(O)ccc12", "pEC50": 8.96}
{"smiles_text": "Cc1c(-c2ccc(O)cc2Cl)n(Cc2ccc(OCCN3CC[C@@H](CF)C3)cc2)c2ccc(O)cc12", "pEC50": 10.70}
{"smiles_text": "Cc1cc(O)ccc1-c1c(C)c2cc(O)ccc2n1Cc1ccc(OCCN2CC(CF)C2)cc1", "pEC50": 10.33}
{"smiles_text": "Cc1cc(F)ccc1-c1sc2cc(O)ccc2c1C(=O)c1ccc(OCCN2CC(CF)C2)cc1", "pEC50": 9.06}
{"smiles_text": "Cc1c(-c2ccc(O)cc2Cl)n(Cc2ccc(OC[C@H](C)N3CC[C@@H](CF)C3)cc2)c2ccc(O)cc12", "pEC50": 10.55}
{"smiles_text": "Cc1cc(-c2c(C)c3cc(O)ccc3n2Cc2ccc(OCCN3CC[C@@H](CF)C3)cc2)ccc1O", "pEC50": 10.60}

Query: Report pEC50 for `Cc1cc(-c2sc3cc(O)ccc3c2C(=O)c2ccc(OCCN3CC(CF)C3)cc2)ccc1F` please.
Response: 8.60

Query: Now give it for `Oc1cccc([C@H]2Sc3c(ccc(O)c3F)O[C@H]2c2ccc(OCCN3CC(CF)C3)cc2)c1` too.
Response: 10.59

Query: Now give it for `CS(=O)(=O)c1ccc(-c2ccc3cc(O)ccc3c2Oc2ccc(OCCN3CC(CF)C3)cc2)cc1` too.
Response: 8.80
